The following compounds have recorded pIC50 on TrkA (Homo sapiens, UniProt P04629).
pIC50: −log10 of the molar value.

Reference set, count: 7
# input compound: O=C1NC2(COC2)COc2ncc(F)cc2[C@@H]2CCON2c2ccn3ncc1c3n2 [WX006B] ; wanted: its pIC50
< 6.00

# input compound: O=C1N[C@@H]2COC[C@@H]2Oc2ncc(F)cc2[C@@H]2CCON2c2ccn3ncc1c3n2 [WX008B] ; wanted: its pIC50
< 6.00

# input compound: O=C1N[C@@H]2COCC[C@@H]2Oc2ncc(F)cc2[C@@H]2CCON2c2ccn3ncc1c3n2 [WX010A] ; wanted: its pIC50
< 6.00

# input compound: CN1CC[C@H]2NC(=O)c3cnn4ccc(nc34)N3OCC[C@H]3c3cc(F)cnc3O[C@H]2C1 [WX011B] ; wanted: its pIC50
6.57

# input compound: O=C1N[C@@H]2CNC[C@@H]2Oc2ncc(F)cc2[C@H]2CCON2c2ccn3ncc1c3n2 [WX012B] ; wanted: its pIC50
6.84

# input compound: CCN1C[C@@H]2Oc3ncc(F)cc3[C@H]3CCON3c3ccn4ncc(c4n3)C(=O)N[C@@H]2C1 [WX015A] ; wanted: its pIC50
6.74

# input compound: CN1C[C@@H]2Oc3ncc(F)cc3[C@@H]3CCON3c3ccn4ncc(c4n3)C(=O)N[C@@H]2C1 [WX009B] ; wanted: its pIC50
< 6.00

Then this compound:
# input compound: O=C1N[C@@H]2CNC[C@@H]2Oc2ncc(F)cc2[C@@H]2CCON2c2ccn3ncc1c3n2 [WX012A] ; wanted: its pIC50
< 6.00

* * *

Biological target: Ba/F3 LMNA-NTRK1-WT stably transfected cell line (Homo sapiens, UniProt P04629)
Construct: fused on or other part: P02545 (Prelamin-A/C)
Sequence (P04629 whole entry, change not shown, the tested form may be a part): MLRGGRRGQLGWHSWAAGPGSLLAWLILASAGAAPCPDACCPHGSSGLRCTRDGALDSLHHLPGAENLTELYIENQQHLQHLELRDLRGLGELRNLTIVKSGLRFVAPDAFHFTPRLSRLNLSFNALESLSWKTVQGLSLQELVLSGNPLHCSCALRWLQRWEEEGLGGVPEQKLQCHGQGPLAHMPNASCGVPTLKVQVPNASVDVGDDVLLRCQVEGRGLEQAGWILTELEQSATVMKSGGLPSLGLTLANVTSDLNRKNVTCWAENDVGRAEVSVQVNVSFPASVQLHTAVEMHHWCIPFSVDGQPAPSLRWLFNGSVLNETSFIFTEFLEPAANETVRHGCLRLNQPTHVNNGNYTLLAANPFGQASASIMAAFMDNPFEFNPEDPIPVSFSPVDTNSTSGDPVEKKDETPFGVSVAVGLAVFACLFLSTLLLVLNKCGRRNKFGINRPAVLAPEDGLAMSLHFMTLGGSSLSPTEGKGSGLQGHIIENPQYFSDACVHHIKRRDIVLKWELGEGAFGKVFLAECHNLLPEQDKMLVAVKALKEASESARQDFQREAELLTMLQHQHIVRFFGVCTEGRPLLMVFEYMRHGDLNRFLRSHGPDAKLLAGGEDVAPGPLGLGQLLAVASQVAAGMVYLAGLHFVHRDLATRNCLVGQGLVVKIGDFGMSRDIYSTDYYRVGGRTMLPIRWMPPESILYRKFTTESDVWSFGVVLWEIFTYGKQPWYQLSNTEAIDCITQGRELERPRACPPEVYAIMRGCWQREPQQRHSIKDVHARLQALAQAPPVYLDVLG
Assay: Cell proliferation inhibition (CellTiter-Glo)
Format: cell-based
Settings: 72 hours, read-out: The half maximal inhibitory concentration IC50 against cells, Ba/F3 LMNA-NTRK1-WT
ENDPOINT: GI50 (nM)

Reference set, count: 2
# input compound: CN1C[C@@H]2Oc3ncc(F)cc3[C@H]3CCON3c3ccn4ncc(c4n3)C(=O)N[C@@H]2C1 [WX009A] ; wanted: its GI50
76.8

# input compound: C[C@H]1CNC(=O)c2cnn3ccc(nc23)N2OCC[C@@H]2c2cc(F)cnc2O1 [WX005B] ; wanted: its GI50
5.73

A: CCN1C[C@@H]2Oc3ncc(F)cc3[C@H]3CCON3c3ccn4ncc(c4n3)C(=O)N[C@@H]2C1 [WX015A]
B: O=C1N[C@@H]2CCC[C@@H]2Oc2ncc(F)cc2[C@H]2CCON2c2ccn3ncc1c3n2 [WX007A]
C: O=C1N[C@@H]2CCNC[C@@H]2Oc2ncc(F)cc2[C@H]2CCON2c2ccn3ncc1c3n2 [WX013B]
Rank entries according to their GI50, from the largest number down. Would you mind listing the labels in the order requested?
C, A, B
(C: 216 nM, A: 65.1 nM, B: 5.8 nM)
